Where do the numbers come from? From patent US20030148956A1.

Kindly supply the reported CRF2R Emax values for the records listed here.
- target_of_assay: T1, CRF2R
- T1 sequence (Q13324 whole entry, species assumed, looked up): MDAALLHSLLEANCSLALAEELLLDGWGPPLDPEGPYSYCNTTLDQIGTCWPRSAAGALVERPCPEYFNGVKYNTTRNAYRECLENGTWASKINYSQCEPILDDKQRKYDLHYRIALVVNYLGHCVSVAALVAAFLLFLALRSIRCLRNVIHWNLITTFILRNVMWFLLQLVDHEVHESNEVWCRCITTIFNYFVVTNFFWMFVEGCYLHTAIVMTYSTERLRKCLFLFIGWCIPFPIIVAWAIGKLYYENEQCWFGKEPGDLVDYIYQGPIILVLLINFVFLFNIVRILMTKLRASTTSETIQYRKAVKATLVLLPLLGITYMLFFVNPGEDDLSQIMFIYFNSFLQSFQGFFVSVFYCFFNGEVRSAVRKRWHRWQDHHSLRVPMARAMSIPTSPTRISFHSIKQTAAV
- method_description: cell-based or functional assay
Ends that are not written are not given here.
Numbers only, in %.

For each of the items listed, what is its CRF2R Emax?
1. ZGPPISIDLPTSLLRKMIEIEKQEKEKQQAANNRLLLDTI (C-terminal amide) [SEQ ID NO 43]
2. ZGPPISIDLPIFLLRKMIEIEKQEKEKQQAANNRLLLDTI (C-terminal amide) [SEQ ID NO 29]
3. ZGPPISIDLPPYLLRKMIEIEKQEKEKQQAANNRLLLDTI (C-terminal amide) [SEQ ID NO 57]
4. SQEPPISLDLPTQLLREVLEMTKADQLAQQAHSNRKLLDIA-NH2 [SEQ ID NO 105]
5. ZGPPISIDVPTYLLRKMIEIEKQEKEKQQATTNARILARV (C-terminal amide) [SEQ ID NO 170]
6. SQEPPISLDLPIQLLREVLEMTKADQLAQQAHSNRKLLDIA-NH2 [SEQ ID NO 100]

a:
1. 67
2. 100
3. 46
4. 9.15
5. 83
6. 9.85
